# tested_target: Muscarinic acetylcholine receptor M2 (Homo sapiens) (UniProt P08172)
# Sequence (P08172 whole entry): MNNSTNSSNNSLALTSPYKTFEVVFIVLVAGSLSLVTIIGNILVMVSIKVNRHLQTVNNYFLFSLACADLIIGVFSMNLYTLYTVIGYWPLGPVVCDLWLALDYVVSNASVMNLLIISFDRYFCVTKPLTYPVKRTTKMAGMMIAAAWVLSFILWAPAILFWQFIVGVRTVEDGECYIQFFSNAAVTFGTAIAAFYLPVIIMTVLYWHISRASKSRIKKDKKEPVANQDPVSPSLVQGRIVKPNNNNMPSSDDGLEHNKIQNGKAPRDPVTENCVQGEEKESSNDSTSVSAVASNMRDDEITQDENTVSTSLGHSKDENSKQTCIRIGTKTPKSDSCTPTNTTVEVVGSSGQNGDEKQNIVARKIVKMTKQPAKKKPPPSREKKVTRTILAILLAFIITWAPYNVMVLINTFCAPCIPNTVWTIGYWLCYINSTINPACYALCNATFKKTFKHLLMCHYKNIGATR
# assay_explanation: Cooperativity with acetylcholine at human muscarinic acetylcholine receptor M2
// values below are reported Cooperativity
I'd appreciate a reply containing only the number, no unit.

COc1cc2c(cc1OC)[C@@]13CC[N+]4(C)CC5=CCO[C@H]6CC(=O)N2[C@H]1[C@H]6[C@H]5C[C@@H]34 (some centres not stated) ... 0.8
COc1cc2c(cc1OC)[C@@]13CC[N+]4([O-])CC5=CCO[C@H]6CC(=O)N2[C@H]1[C@H]6[C@H]5C[C@@H]34 (some centres not stated) ... 0.8

Attention now shifts to the item below.
Prompt: Cooperativity of O=C1C[C@@H]2OCC=C3C[N+]4(Cc5cccc([N+](=O)[O-])c5)CC[C@]56c7ccccc7N1[C@H]5[C@H]2[C@H]3C[C@@H]64 (some centres not stated) on Muscarinic acetylcholine receptor M2 (Homo sapiens) (UniProt P08172)?
Completion: 0.8

* * *

# tested_target: Muscarinic acetylcholine receptor M5 (Homo sapiens) (UniProt P08912)
# Sequence (whole entry): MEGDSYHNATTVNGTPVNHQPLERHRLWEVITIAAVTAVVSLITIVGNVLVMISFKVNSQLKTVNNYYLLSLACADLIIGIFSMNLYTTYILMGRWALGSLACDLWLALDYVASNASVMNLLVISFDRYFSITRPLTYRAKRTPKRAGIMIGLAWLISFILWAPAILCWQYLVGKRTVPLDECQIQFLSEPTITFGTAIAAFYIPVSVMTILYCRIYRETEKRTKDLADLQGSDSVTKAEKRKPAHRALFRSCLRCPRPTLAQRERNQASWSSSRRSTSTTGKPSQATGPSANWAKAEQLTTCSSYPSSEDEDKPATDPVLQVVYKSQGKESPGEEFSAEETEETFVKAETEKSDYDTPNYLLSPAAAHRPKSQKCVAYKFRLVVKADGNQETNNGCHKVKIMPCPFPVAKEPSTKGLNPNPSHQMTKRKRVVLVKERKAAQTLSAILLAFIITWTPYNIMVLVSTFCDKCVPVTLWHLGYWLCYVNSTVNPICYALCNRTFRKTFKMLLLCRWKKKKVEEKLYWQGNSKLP
# assay_explanation: Binding affinity at the unliganded Muscarinic acetylcholine receptor M5 was estimated as log affinity (log1/M)
// values below are reported Affinity

Before answering, review these 4 worked examples.
COc1cc2c(cc1OC)[C@@]13CC[N+]4(N)CC5=CCO[C@H]6CC(=O)N2[C@H]1[C@H]6[C@H]5C[C@@H]34 (some centres not stated) ... 3.6
COc1cc2c(cc1OC)[C@@]13CC[N+]4([O-])CC5=CCO[C@H]6CC(=O)N2[C@H]1[C@H]6[C@H]5C[C@@H]34 (some centres not stated) ... 2.5
COc1cc2c(cc1OC)[C@@]13CC[N+]4(CCl)CC5=CCO[C@H]6CC(=O)N2[C@H]1[C@H]6[C@H]5C[C@@H]34 (some centres not stated) ... 3.7
COc1cc2c(cc1OC)[C@@]13CC[N+]4(C)CC5=CCO[C@H]6CC(=O)N2[C@H]1[C@H]6[C@H]5C[C@@H]34 (some centres not stated) ... 3.3

Prompt: Any idea what its Affinity is? The compound is COc1cc2c(cc1OC)[C@@]13CC[N+]4(Cc5ccccc5)CC5=CCO[C@H]6CC(=O)N2[C@H]1[C@H]6[C@H]5C[C@@H]34 (some centres not stated)
Completion: 3.7

Prompt: Any idea what its Affinity is? The compound is C=CC[N+]12CC[C@@]34c5cc(OC)c(OC)cc5N5C(=O)C[C@@H]6OCC=C(C1)[C@H](C[C@@H]32)[C@@H]6[C@H]54 (some centres not stated)
Completion: 3.8

Prompt: Any idea what its Affinity is? The compound is `COc1cc2c(cc1OC)[C@@]13CCN4CC5=CCO[C@H]6CC(=O)N2[C@H]1[C@H]6[C@H]5C[C@H]43`
Completion: 4.3

* * *

# tested_target: Muscarinic acetylcholine receptor M4 (Homo sapiens)
# Sequence (whole entry): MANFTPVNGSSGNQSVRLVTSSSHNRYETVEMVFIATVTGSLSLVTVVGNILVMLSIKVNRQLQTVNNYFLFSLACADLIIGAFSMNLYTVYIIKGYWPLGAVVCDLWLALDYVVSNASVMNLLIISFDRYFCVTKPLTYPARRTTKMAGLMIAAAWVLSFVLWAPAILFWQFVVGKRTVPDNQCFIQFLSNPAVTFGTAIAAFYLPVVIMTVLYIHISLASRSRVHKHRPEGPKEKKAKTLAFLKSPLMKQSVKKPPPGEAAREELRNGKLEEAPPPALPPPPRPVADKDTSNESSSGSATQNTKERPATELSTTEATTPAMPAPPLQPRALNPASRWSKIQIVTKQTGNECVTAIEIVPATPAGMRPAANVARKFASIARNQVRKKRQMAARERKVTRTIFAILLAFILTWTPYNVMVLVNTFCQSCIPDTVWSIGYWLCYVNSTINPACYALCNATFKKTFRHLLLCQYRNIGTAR
# assay_explanation: Binding affinity at the unliganded human muscarinic acetylcholine receptor M4 was estimated as log affinity (log1/M)
endpoint: Affinity

C[N+]12CC[C@@]34c5ccccc5N5C(=O)C[C@@H]6OCC=C(C1)[C@H](C[C@@H]32)[C@@H]6[C@H]54 (some centres undefined) ... 4.1

Prompt: Any idea what its Affinity is? The compound is COc1cc2c(cc1OC)[C@@]13CC[N+]4(C)CC5=CCO[C@H]6CC(=O)N2[C@H]1[C@H]6[C@H]5C[C@@H]34 (some centres undefined)
Completion: 4.3

Prompt: Any idea what its Affinity is? The compound is C=CC[N+]12CC[C@@]34c5ccccc5N5C(=O)C[C@@H]6OCC=C(C1)[C@H](C[C@@H]32)[C@@H]6[C@H]54 (some centres undefined)
Completion: 5

Prompt: Any idea what its Affinity is? The compound is O=C1C[C@@H]2OCC=C3C[N+]4(Cc5cccc([N+](=O)[O-])c5)CC[C@]56c7ccccc7N1[C@H]5[C@H]2[C@H]3C[C@@H]64 (some centres undefined)
Completion: < 5.2

* * *

// values below are reported Cooperativity
# tested_target: Muscarinic acetylcholine receptor M2 (Homo sapiens)
# assay_explanation: Cooperativity with acetylcholine at human muscarinic acetylcholine receptor M2

Before answering, review these 2 worked examples.
N[N+]12CC[C@@]34c5ccccc5N5C(=O)C[C@@H]6OCC=C(C1)[C@H](C[C@@H]32)[C@@H]6[C@H]54 (stereo partly drawn) ... 0.8
O=C1C[C@@H]2OCC=C3C[N+]4(Cc5ccc(-c6ccccc6)cc5)CC[C@]56c7ccccc7N1[C@H]5[C@H]2[C@H]3C[C@@H]64 (stereo partly drawn) ... < 0.2

Prompt: Cooperativity of C[N+]12CC[C@@]34c5ccccc5N5C(=O)C[C@@H]6OCC=C(C1)[C@H](C[C@@H]32)[C@@H]6[C@H]54 (stereo partly drawn) on Muscarinic acetylcholine receptor M2 (Homo sapiens)?
Completion: < 0.2

* * *

# tested_target: Muscarinic acetylcholine receptor M4 (Homo sapiens) (UniProt P08173)
# assay_explanation: Cooperativity with NMS at human muscarinic acetylcholine receptor M4
endpoint: Cooperativity
I'd appreciate a reply containing only the number, no unit.

Before answering, review these 5 worked examples.
O=C1C[C@@H]2OCC=C3C[N+]4(CCc5ccccc5)CC[C@]56c7ccccc7N1[C@H]5[C@H]2[C@H]3C[C@@H]64 (stereo not given in full) ... 2
O=C1C[C@@H]2OCC=C3CN4CC[C@]56c7ccccc7N1[C@H]5[C@H]2[C@H]3C[C@H]46 ... 2
C=CC[N+]12CC[C@@]34c5cc(OC)c(OC)cc5N5C(=O)C[C@@H]6OCC=C(C1)[C@H](C[C@@H]32)[C@@H]6[C@H]54 (stereo not given in full) ... 1.19
O=C1C[C@@H]2OCC=C3C[N+]4([O-])CC[C@]56c7ccccc7N1[C@H]5[C@H]2[C@H]3C[C@@H]64 (stereo not given in full) ... 2
O=C1C[C@@H]2OCC=C3C[N+]4(Cc5ccccc5)CC[C@]56c7ccccc7N1[C@H]5[C@H]2[C@H]3C[C@@H]64 (stereo not given in full) ... 2

Prompt: Any idea what its Cooperativity is? The compound is COc1cc2c(cc1OC)[C@@]13CC[N+]4(Cc5ccccc5)CC5=CCO[C@H]6CC(=O)N2[C@H]1[C@H]6[C@H]5C[C@@H]34 (stereo not given in full)
Completion: 1.19

Prompt: Any idea what its Cooperativity is? The compound is O=C1C[C@@H]2OCC=C3C[N+]4(CC5CCCCC5)CC[C@]56c7ccccc7N1[C@H]5[C@H]2[C@H]3C[C@@H]64 (stereo not given in full)
Completion: 2

Prompt: Any idea what its Cooperativity is? The compound is CCC[N+]12CC[C@@]34c5ccccc5N5C(=O)C[C@@H]6OCC=C(C1)[C@H](C[C@@H]32)[C@@H]6[C@H]54 (stereo not given in full)
Completion: 0.8

Values from ChEMBL document CHEMBL1132569
